Values compiled from paper doi:10.1101/2021.12.02.470928.

I'd appreciate it if you could supply Kd values for the items below.
Biological target: T1, PNUTS(1-148), PNUTS amino-terminal domain (PAD) (UniProt Q96QC0 1-148)
T1 chain: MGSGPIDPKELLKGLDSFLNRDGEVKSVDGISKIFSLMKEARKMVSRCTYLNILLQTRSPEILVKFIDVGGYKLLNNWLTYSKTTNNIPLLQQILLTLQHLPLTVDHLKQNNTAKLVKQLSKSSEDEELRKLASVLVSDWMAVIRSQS
Assay: BLI
Kindly provide the numeric value in µM only, without the unit symbol.

Reported Kd for biotinylated MYC(1-88 F23A) (domain or fragment, biotin on the C-terminal AVI tag) MPLNVSFTNRNYDLDYDSVQPYAYCDEEENFYQQQQQSELQPPAPSEDIWKKFELLPTPPLSPSRRSGLCSPSYVAVTPFSLRGDNDG was 19

The binder identified as biotinylated MYC(1-88 P21A) (domain or fragment, biotin on the C-terminal AVI tag) MPLNVSFTNRNYDLDYDSVQAYFYCDEEENFYQQQQQSELQPPAPSEDIWKKFELLPTPPLSPSRRSGLCSPSYVAVTPFSLRGDNDG registered its Kd at 19

Reported Kd for biotinylated MYC(1-88 Y24A) (domain or fragment, biotin on the C-terminal AVI tag) MPLNVSFTNRNYDLDYDSVQPYFACDEEENFYQQQQQSELQPPAPSEDIWKKFELLPTPPLSPSRRSGLCSPSYVAVTPFSLRGDNDG was 37

Data point: biotinylated MYC(1-88 Y22A) (domain or fragment, biotin on the C-terminal AVI tag) MPLNVSFTNRNYDLDYDSVQPAFYCDEEENFYQQQQQSELQPPAPSEDIWKKFELLPTPPLSPSRRSGLCSPSYVAVTPFSLRGDNDG ; Kd = 24
